System: NCI-H1341 (Small Cell Lung Carcinoma)
assay.method.text: combination Emax (second highest fraction inhibited in the dose matrix, 72 h); higher = more inhibition; extreme values may be limits of the assay
Could you label it yes if measured combination Emax is 0.9 or higher, and no otherwise?

Reference set (4 entries):
| molecule | qualitative.label |
| --- | --- |
| CC1(C)CCC(CN2CCN(c3ccc(C(=O)NS(=O)(=O)c4ccc(NCC5CCOCC5)c([N+](=O)[O-])c4)c(Oc4cnc5[nH]ccc5c4)c3)CC2)=C(c2ccc(Cl)cc2)C1 [Venetoclax] + COc1cc(Nc2ncc3c(n2)-c2ccc(Cl)cc2C(c2c(F)cccc2OC)=NC3)ccc1C(=O)O [Alisertib] (first compound max 1 µM, 7x7, partner max 10 µM) | yes |
| Cc1c2c(nn1C)CSCc1cc(n(C)n1)CSc1cc(c3ccccc3c1)OCCCc1c(C(=O)O)n(C)c3c-2c(Cl)ccc13 [AZD5991] + C=CCn1c(=O)c2cnc(Nc3ccc(N4CCN(C)CC4)cc3)nc2n1-c1cccc(C(C)(C)O)n1 [AZD1775] (first compound max 1 µM, partner max 1 µM) | no |
| CC1(C)CCC(CN2CCN(c3ccc(C(=O)NS(=O)(=O)c4ccc(NCC5CCOCC5)c([N+](=O)[O-])c4)c(Oc4cnc5[nH]ccc5c4)c3)CC2)=C(c2ccc(Cl)cc2)C1 [Venetoclax] + Cn1cnc2c(F)c(Nc3ccc(Br)cc3Cl)c(C(=O)NOCCO)cc21 [Selumetinib] (first compound max 1 µM, 7x7, partner max 3 µM) | no |
| Cn1cnc2c(F)c(Nc3ccc(Br)cc3Cl)c(C(=O)NOCCO)cc21 [Selumetinib] + C=CCn1c(=O)c2cnc(Nc3ccc(N4CCN(C)CC4)cc3)nc2n1-c1cccc(C(C)(C)O)n1 [AZD1775] (first compound max 10 µM, partner max 1 µM) | no |

Here is another molecule to look at.
IN: Textbook exercise: given the entry CN(CCO)CC[C@H](CSc1ccccc1)Nc1ccc(S(=O)(=O)NC(=O)c2ccc(N3CCC([C@@H](O)c4ccccc4-c4ccc(Cl)cc4)CC3)cc2)cc1S(=O)(=O)C(F)(F)F [AZD4320] + Cc1cc2ncnn2cc1Nc1ncc2c(n1)n(C1CCOCC1)c(=O)n2C [AZD7648] (first compound max 1 µM, 7x7, partner max 10 µM) , state whether its combination Emax is greater than or equal to 0.9.
OUT: yes

###

Test system: ZR-75-30 (Breast Carcinoma)
assay.method.text: Bliss excess, mean over the matrix (fraction); higher = more synergy
Can you tell me Bliss excess for the items I'm about to list?
Numbers only.

Below, 3 molecules whose answers are already recorded.
| molecule | Bliss excess |
| --- | --- |
| Cc1c2c(nn1C)CSCc1cc(n(C)n1)CSc1cc(c3ccccc3c1)OCCCc1c(C(=O)O)n(C)c3c-2c(Cl)ccc13 [AZD5991] + Nc1ccn([C@@H]2O[C@H](CO)[C@@H](O)C2(F)F)c(=O)n1 [Gemcitabine] (first compound max 1 µM, 7x7, partner max 0.3 µM) | 0.0283 |
| CN(CCO)CC[C@H](CSc1ccccc1)Nc1ccc(S(=O)(=O)NC(=O)c2ccc(N3CCC([C@@H](O)c4ccccc4-c4ccc(Cl)cc4)CC3)cc2)cc1S(=O)(=O)C(F)(F)F [AZD4320] + CS(=O)(=O)CCNCc1ccc(-c2ccc3ncnc(Nc4ccc(OCc5cccc(F)c5)c(Cl)c4)c3c2)o1 [Lapatinib] (first compound max 1 µM, 7x7, partner max 10 µM) | 0.0458 |
| CCN(CCO)CCCOc1ccc2c(Nc3cc(CC(=O)Nc4cccc(F)c4)[nH]n3)ncnc2c1 [AZD2811] + O=C(c1cc(Cc2n[nH]c(=O)c3ccccc23)ccc1F)N1CCN(C(=O)C2CC2)CC1 [Olaparib] (first compound max 1 µM, 7x7, partner max 10 µM) | -0.0225 |

IN: Give Bliss excess for NC1(C(=O)N[C@@H](CCO)c2ccc(Cl)cc2)CCN(c2ncnc3[nH]ccc23)CC1 [Capivasertib] + Cn1cnc2c(F)c(Nc3ccc(Br)cc3Cl)c(C(=O)NOCCO)cc21 [Selumetinib] (first compound max 10 µM, 7x7, partner max 10 µM) tested on ZR-75-30 (Breast Carcinoma).
OUT: -0.0071

###

Test system: ES6 (Ewing's Sarcoma)
assay.method.text: Bliss excess, mean over the matrix (fraction); higher = more synergy
Can you tell me Bliss excess for the items I'm about to list?
Answers are plain numbers.

Below, 3 compounds whose answers are already recorded.
| compound | Bliss excess |
| --- | --- |
| COc1cccc(OCCCN)c1-c1cc(Nc2cnc(C#N)cn2)n[nH]1 [Prexasertib] + C=CCn1c(=O)c2cnc(Nc3ccc(N4CCN(C)CC4)cc3)nc2n1-c1cccc(C(C)(C)O)n1 [AZD1775] (first compound max 1 µM, partner max 1 µM) | 0.0362 |
| Cc1cc2ncnn2cc1Nc1ncc2c(n1)n(C1CCOCC1)c(=O)n2C [AZD7648] + C[C@@H]1COCCN1C2=NC(=NC(=C2)C3(CC3)[S@](=N)(=O)C)C4=C5C=CNC5=NC=C4 [AZD6738] (first compound max 10 µM, 7x7, partner max 10 µM) | -0.0082 |
| O=C(c1cc(Cc2n[nH]c(=O)c3ccccc23)ccc1F)N1CCN(C(=O)C2CC2)CC1 [Olaparib] + COc1nnc2ccc(N3CCC(c4ccc(OCCN5CCN(C)C(=O)[C@H]5C)cc4)CC3)nn12 [AZD5153] (first compound max 10 µM, 7x7, partner max 1 µM) | -0.0941 |

IN: In one line, give reported Bliss excess of the entry CC1(C)CCC(CN2CCN(c3ccc(C(=O)NS(=O)(=O)c4ccc(NCC5CCOCC5)c([N+](=O)[O-])c4)c(Oc4cnc5[nH]ccc5c4)c3)CC2)=C(c2ccc(Cl)cc2)C1 [Venetoclax] + C[C@@H](Nc1cc(F)cc(F)c1)c1cc(C(=O)N(C)C)cc2c(=O)cc(N3CCOCC3)oc12 [AZD8186] (first compound max 1 µM, 7x7, partner max 3 µM) .
OUT: -0.0661

###

System: MOLT-13 (T-Lymphoblastic Leukemia)
assay.method.text: Bliss excess, mean over the matrix (fraction); higher = more synergy
Can you tell me Bliss excess for the items I'm about to list?
Give bare numbers.

Please look at the items below and tell me Bliss excess for each one, in order.
1. COc1nnc2ccc(N3CCC(c4ccc(OCCN5CCN(C)C(=O)[C@H]5C)cc4)CC3)nn12 [AZD5153] + Cc1c2c(nn1C)CSCc1cc(n(C)n1)CSc1cc(c3ccccc3c1)OCCCc1c(C(=O)O)n(C)c3c-2c(Cl)ccc13 [AZD5991] (first compound max 1 µM, 7x7, partner max 1 µM)
2. CCc1c2c(nc3ccc(O)cc13)-c1cc3c(c(=O)n1C2)COC(=O)[C@]3(O)CC [SN-38] + CN(C)CCCOc1ccc(-c2ccc3ncc4c(c3c2)n(C2CCOCC2)c(=O)n4C)cn1 [AZD0156] (first compound max 0.3 µM, 7x7, partner max 1 µM)
3. Cc1cc2ncnn2cc1Nc1ncc2c(n1)n(C1CCOCC1)c(=O)n2C [AZD7648] + C[C@@H]1COCCN1C2=NC(=NC(=C2)C3(CC3)[S@](=N)(=O)C)C4=C5C=CNC5=NC=C4 [AZD6738] (first compound max 10 µM, 7x7, partner max 10 µM)
4. Cn1cnc2c(F)c(Nc3ccc(Br)cc3Cl)c(C(=O)NOCCO)cc21 [Selumetinib] + C=CCn1c(=O)c2cnc(Nc3ccc(N4CCN(C)CC4)cc3)nc2n1-c1cccc(C(C)(C)O)n1 [AZD1775] (first compound max 10 µM, partner max 1 µM)

OUT:
1. -0.0503
2. 0.085
3. -0.0154
4. 0.0535

###

Tested on: MOLT-13 (T-Lymphoblastic Leukemia)
assay.method.text: Bliss excess, mean over the matrix (fraction); higher = more synergy
Can you tell me Bliss excess for the items I'm about to list?
Give bare numbers.

Below, 3 compounds whose answers are already recorded.
| compound | Bliss excess |
| --- | --- |
| Cc1cc2ncnn2cc1Nc1ncc2c(n1)n(C1CCOCC1)c(=O)n2C [AZD7648] + C=CCn1c(=O)c2cnc(Nc3ccc(N4CCN(C)CC4)cc3)nc2n1-c1cccc(C(C)(C)O)n1 [AZD1775] (first compound max 10 µM, partner max 1 µM) | 0.0144 |
| Cc1c2c(nn1C)CSCc1cc(n(C)n1)CSc1cc(c3ccccc3c1)OCCCc1c(C(=O)O)n(C)c3c-2c(Cl)ccc13 [AZD5991] + CCN(CCO)CCCOc1ccc2c(Nc3cc(CC(=O)Nc4cccc(F)c4)[nH]n3)ncnc2c1 [AZD2811] (first compound max 1 µM, 7x7, partner max 1 µM) | 0.0028 |
| Cc1c2c(nn1C)CSCc1cc(n(C)n1)CSc1cc(c3ccccc3c1)OCCCc1c(C(=O)O)n(C)c3c-2c(Cl)ccc13 [AZD5991] + CN(C)CCCOc1ccc(-c2ccc3ncc4c(c3c2)n(C2CCOCC2)c(=O)n4C)cn1 [AZD0156] (first compound max 1 µM, 7x7, partner max 1 µM) | -0.0198 |

Please examine the following record next.
IN: Give Bliss excess for CCc1c2c(nc3ccc(O)cc13)-c1cc3c(c(=O)n1C2)COC(=O)[C@]3(O)CC [SN-38] + O=C(c1cc(Cc2n[nH]c(=O)c3ccccc23)ccc1F)N1CCN(C(=O)C2CC2)CC1 [Olaparib] (first compound max 0.3 µM, 7x7, partner max 10 µM) tested on MOLT-13 (T-Lymphoblastic Leukemia).
OUT: 0.0811
